Data origin: paper PMC4005005

biological target: G9a (Homo sapiens, UniProt Q96KQ7)
Sequence (Q96KQ7 2-1210): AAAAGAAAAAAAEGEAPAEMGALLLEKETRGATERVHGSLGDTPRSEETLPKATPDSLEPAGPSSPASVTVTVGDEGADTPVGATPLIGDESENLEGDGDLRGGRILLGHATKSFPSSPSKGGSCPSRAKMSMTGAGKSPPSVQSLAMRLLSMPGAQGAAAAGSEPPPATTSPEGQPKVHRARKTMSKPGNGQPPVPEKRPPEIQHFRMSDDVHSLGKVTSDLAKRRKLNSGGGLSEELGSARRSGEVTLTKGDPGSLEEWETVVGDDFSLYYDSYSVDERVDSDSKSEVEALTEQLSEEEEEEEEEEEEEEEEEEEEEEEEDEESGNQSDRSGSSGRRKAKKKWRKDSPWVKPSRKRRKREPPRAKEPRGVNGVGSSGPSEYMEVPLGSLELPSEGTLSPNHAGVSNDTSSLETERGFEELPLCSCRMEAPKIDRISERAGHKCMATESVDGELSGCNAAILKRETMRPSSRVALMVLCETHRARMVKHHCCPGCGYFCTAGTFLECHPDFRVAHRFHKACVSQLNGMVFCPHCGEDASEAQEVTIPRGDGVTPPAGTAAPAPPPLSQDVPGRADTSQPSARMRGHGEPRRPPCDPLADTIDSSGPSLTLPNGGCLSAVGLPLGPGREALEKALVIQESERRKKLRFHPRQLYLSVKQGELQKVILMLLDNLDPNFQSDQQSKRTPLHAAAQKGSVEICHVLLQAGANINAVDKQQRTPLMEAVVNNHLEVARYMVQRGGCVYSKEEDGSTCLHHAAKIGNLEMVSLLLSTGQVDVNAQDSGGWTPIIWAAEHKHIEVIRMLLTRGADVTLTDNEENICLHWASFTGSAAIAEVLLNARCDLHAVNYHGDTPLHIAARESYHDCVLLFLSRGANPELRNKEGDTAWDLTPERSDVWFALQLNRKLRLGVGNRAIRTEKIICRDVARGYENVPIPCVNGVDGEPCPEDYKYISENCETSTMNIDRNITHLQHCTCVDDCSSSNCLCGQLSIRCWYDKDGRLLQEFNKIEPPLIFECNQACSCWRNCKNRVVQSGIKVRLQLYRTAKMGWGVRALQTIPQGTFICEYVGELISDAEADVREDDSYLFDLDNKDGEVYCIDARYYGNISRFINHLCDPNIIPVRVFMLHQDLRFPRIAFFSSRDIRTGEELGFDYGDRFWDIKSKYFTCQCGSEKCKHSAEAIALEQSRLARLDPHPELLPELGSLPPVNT

mol_smiles	IC50
COc1cc2c(NC3CCN(CCCc4cn(CCOCCOCCOCCNC(=O)CCCC[C@H]5SC[C@H]6NC(=O)N[C@H]65)nn4)CC3)nc(C3CCCCC3)nc2cc1OCCCN1CCCC1	< 2.5 nM
